Entry source: PubChem BioAssay (NCI)

# Tested on: SF-539 CNS
# EXPERIMENT_NOTES: NCI tumour cell line growth inhibition, 48 h
MEASURE_NAME: TGI

INSERT INTO measurements (compound, target_or_system, measure_name, readout_value) VALUES
  ('CC(=O)O/C=C\OC1CCCC1', 'SF-539 CNS', 'TGI', '> 100 µM'),
  ('Cc1cc(C)c(NS(=O)c2cccc([N+](=O)[O-])c2)c(C)c1 (stereo not given)', 'SF-539 CNS', 'TGI', '> 100 µM'),
  ('COC(=O)C(=O)C1CCCCC(C2=NC3NN=C(N)N3C2=O)C1=O (stereo not given)', 'SF-539 CNS', 'TGI', '> 100 µM'),
  ('CCCC(=O)OCC(O)CO (stereo not given)', 'SF-539 CNS', 'TGI', '> 5000 µM'),
  ('O=C(/C=C/c1ccc(F)c(F)c1)OCCc1ccccc1', 'SF-539 CNS', 'TGI', '> 100 µM'),
  ('O=P1(O)c2ccccc2CS(=O)(=O)Cc2ccccc21', 'SF-539 CNS', 'TGI', '> 100 µM'),
  ('COC(=O)C1=Cc2c(OC)cc(OC)c(OC)c2[C@H](c2cc(OC)c(OC)cc2OC)C1C(=O)OC (stereo not given in full)', 'SF-539 CNS', 'TGI', '> 100 µM'),
  ('CCOC(=O)c1cn2c([nH]c3ccccc32)c(C#N)c1=O', 'SF-539 CNS', 'TGI', '> 100 µM'),
  ('CC(C)(C)C(=O)[CH-]C(=O)C(F)(F)C(F)(F)C(F)(F)F.CC(C)(C)C(=O)[CH-]C(=O)C(F)(F)C(F)(F)C(F)(F)F.[O-]CC1OC(O)C(O)C(O)C1O.[O-]CC1OC(O)C(O)C(O)C1O.[Ti+4]', 'SF-539 CNS', 'TGI', '> 100 µM'),
  ('CCOc1cc(/C=N\NC(=O)N/N=C/c2ccc(O)c(OCC)c2)ccc1O', 'SF-539 CNS', 'TGI', '> 100 µM'),
  ('CC[C@@]1(OC(=O)CN)C(=O)OCc2c1cc1n(c2=O)Cc2cc3c(N)c4c(cc3nc2-1)OCO4', 'SF-539 CNS', 'TGI', '0.000945 µM'),
  ('C/C(=N\Nc1cccc(Cl)n1)c1ccccn1', 'SF-539 CNS', 'TGI', '4.53 µM'),
  ('COC(=O)c1cc(C)n(NC(=O)OC(C)(C)C)c1C', 'SF-539 CNS', 'TGI', '> 100 µM'),
  ('Nc1cccc2nsnc12', 'SF-539 CNS', 'TGI', '> 100 µM'),
  ('CC(C)(C)c1cc(C(C)(C)C)c2sc(=S)oc2c1O', 'SF-539 CNS', 'TGI', '11.1 µM'),
  ('Cc1sc(/N=C2/NC(=O)CS2)nc1-c1nc(/N=C2/NC(=O)CS2)sc1C', 'SF-539 CNS', 'TGI', '> 50 µM'),
  ('O=C1CSC(/C=C/c2ccccc2)N1c1ccc(-n2c(-c3ccccc3)nc3ccccc3c2=O)cc1 (stereo not given)', 'SF-539 CNS', 'TGI', '> 100 µM'),
  ('CCCCCCCCCC(=O)CC(=O)c1c(O)cc(O)cc1O', 'SF-539 CNS', 'TGI', '43.3 µM'),
  ('CN1CCN(c2ccc3nc4c(nc3c2C(F)(F)F)C(=O)c2ncccc2C4=O)CC1', 'SF-539 CNS', 'TGI', '2.85 µM'),
  ('Cc1cc(C)c2[s+]snc2c1', 'SF-539 CNS', 'TGI', '> 100 µM'),
  ('NC1=NS(=O)(=O)Nc2nc(-c3cccs3)[nH]c21', 'SF-539 CNS', 'TGI', '> 100 µM'),
  ('COc1ccc(C2C3=C(COC3=O)N(CCO)c3cc4c(cc32)OCCO4)cc1OC (stereo not given)', 'SF-539 CNS', 'TGI', '> 18 µM'),
  ('C1=c2ccccc2=C2C(=C(c3ccccc3)C(c3ccccc3)=NN2c2ccccc2)S1', 'SF-539 CNS', 'TGI', '> 100 µM'),
  ('O=C(Nc1ccc(S(=O)(=O)NC2CCCCCC2)cc1)C(c1ccccc1)S(=O)(=O)c1ccc(F)cc1 (stereo not given)', 'SF-539 CNS', 'TGI', '1.88 µM'),
  ('Cn1c(N)c(-c2c3ccccc3nc3ccccc23)c(=O)n(C)c1=O', 'SF-539 CNS', 'TGI', '> 100 µM'),
  ('COC(=O)c1ccc(NCc2cc(O)ccc2O)cc1O', 'SF-539 CNS', 'TGI', '6.31 µM'),
  ('CCCCCc1c(C)[nH]c(/C=c2\[nH]/c(=C3/C=c4ccccc4=N3)cc2OC)c1C', 'SF-539 CNS', 'TGI', '0.659 µM'),
  ('N#CSCC(=O)c1ccc(Cl)cc1', 'SF-539 CNS', 'TGI', '14.9 µM'),
  ('Cc1cccc(N=C2NC(=O)C(CC(=O)Nc3ccc(Cl)cc3C)S2)c1 (stereo not given)', 'SF-539 CNS', 'TGI', '> 100 µM'),
  ('CCCOCN1COCN=C1NC#N', 'SF-539 CNS', 'TGI', '> 100 µM');

###

Parameter TGI: see the listing below.
# Test system: NCI-H522 lung
# EXPERIMENT_NOTES: NCI tumour cell line growth inhibition, 48 h
MEASURE_NAME: TGI

INSERT INTO assay_data (compound, measure_name, readout_value) VALUES
  ('N#Cc1c(Oc2ccc(F)c(NC(=O)Cc3cccc(C(F)(F)F)c3)c2)ccc2nc(NC(=O)C3CC3)sc12', 'TGI', '> 25 µM'),
  ('COc1cc(/C=C/C(=O)c2ccc(Nc3nc(Nc4ccccc4)nc(Nc4ccc(Cl)cc4)n3)cc2)cc(OC)c1OC', 'TGI', '> 32.5 µM'),
  ('COc1cccc(-c2cc(=O)c3cccnc3[nH]2)c1', 'TGI', '> 100 µM'),
  ('CCCOCN1COCN=C1NC#N', 'TGI', '> 100 µM'),
  ('CCOC(=O)CNC(=O)C(CSC(=O)N(C)O)NC(=O)CCC(N)C(=O)O (configuration not stated)', 'TGI', '> 2000 µM'),
  ('Cc1onc(-c2c(F)cccc2Cl)c1C(=O)N[C@@H]1C(=O)N2[C@@H]1SC(C)(C)[C@@H]2C(=O)O', 'TGI', '> 100 µM'),
  ('C=CCC1=CC2(OC)C(=O)C(OC)(OC)C1C1C(OC)(OC)C(=O)C(OC)=CC12CC=C (configuration not stated)', 'TGI', '> 100 µM'),
  ('CCOC(=O)CC(N1CC1)N1CC1', 'TGI', '> 10 µM'),
  ('Cc1cccc(N=C2NC(=O)C(CC(=O)Nc3ccc(Cl)cc3C)S2)c1 (configuration not stated)', 'TGI', '> 100 µM'),
  ('CC(=O)O/C=C\OC1CCCC1', 'TGI', '> 100 µM'),
  ('O=C1CCC(=O)C(C(=O)CCC(=O)Nc2cccc(Cl)c2)C1 (configuration not stated)', 'TGI', '> 100 µM'),
  ('Cc1ccc(-c2cc(/C=N/O)on2)cc1', 'TGI', '> 100 µM');

###

The entries below are paired with their reported TGI.
# System: MDA-MB-435
# EXPERIMENT_NOTES: NCI tumour cell line growth inhibition, 48 h
MEASURE_NAME: TGI

INSERT INTO assay_data (compound, target_or_system, readout_value) VALUES
  ('Cc1c(N2C(=O)/C(=C\c3ccc(N(C)C)cc3)N=C2c2ccccc2)c(=O)n(-c2ccccc2)n1C', 'MDA-MB-435', '> 100 µM'),
  ('O=C(/C=C/c1ccc(F)c(F)c1)OCCc1ccccc1', 'MDA-MB-435', '> 100 µM'),
  ('CN(C)CCC(C(=O)C(C)(C)C)c1ccccn1 (stereo unspecified)', 'MDA-MB-435', '> 100 µM'),
  ('O=C1c2cccc3cc([N+](=O)[O-])cc(c23)C(=O)N1O', 'MDA-MB-435', '> 100 µM'),
  ('NC(N)=NS(=O)(=O)c1ccc(NNc2c3ccccc3nc3c(C(=O)Nc4ccc(S(N)(=O)=O)cc4)cccc23)cc1', 'MDA-MB-435', '> 100 µM'),
  ('COc1cc(/C=C/C(=O)c2ccc(Nc3nc(Nc4ccccc4)nc(Nc4ccc(Cl)cc4)n3)cc2)cc(OC)c1OC', 'MDA-MB-435', '> 32.5 µM');

###

# Tested on: 786-0 renal
# EXPERIMENT_NOTES: NCI tumour cell line growth inhibition, 48 h
MEASURE_NAME: TGI

INSERT INTO assay_data (compound, measure_name, readout_value) VALUES
  ('COc1ccc(C2C3=C(COC3=O)N(CCO)c3cc4c(cc32)OCCO4)cc1OC (centres undefined)', 'TGI', '> 50 µM'),
  ('O=C1N[C@@H]2c3c(Br)sc(Br)c3C(=O)[C@@H]2N1', 'TGI', '6.4 µM'),
  ('C[N+](C)(Cc1ccc(NC(=O)CCCC(=O)ON2C(=O)CCC2=O)cc1)c1ccccc1', 'TGI', '> 100 µM'),
  ('CCCCOc1ccc(S(=O)(=O)/N=C(\NN)Nc2ccc(Cl)cc2)cc1', 'TGI', '31 µM'),
  ('CCOc1cc(NC(C)=O)ccc1C(=O)NN1C(=O)CSC1c1ccc(O)c(OC)c1 (centres undefined)', 'TGI', '> 100 µM'),
  ('CC1=NN(c2ccccc2)C(=O)C1N=Nc1ccc(Br)c(C)c1 (centres undefined)', 'TGI', '> 100 µM'),
  ('CC(C)(C)C(=O)[CH-]C(=O)C(F)(F)C(F)(F)C(F)(F)F.CC(C)(C)C(=O)[CH-]C(=O)C(F)(F)C(F)(F)C(F)(F)F.[O-]CC1OC(O)C(O)C(O)C1O.[O-]CC1OC(O)C(O)C(O)C1O.[Ti+4]', 'TGI', '> 100 µM'),
  ('CNC(=O)OCCN1c2ccccc2Sc2ccccc21', 'TGI', '> 100 µM'),
  ('CCCCCc1c(C)[nH]c(/C=c2\[nH]/c(=C3/C=c4ccccc4=N3)cc2OC)c1C', 'TGI', '0.242 µM'),
  ('CCOC(=O)c1c(N2CCOCC2)[nH]c(=O)c(C(c2ccc(Cl)c([N+](=O)[O-])c2)c2c(O)c(C(=O)OCC)c(N3CCOCC3)[nH]c2=O)c1O', 'TGI', '> 100 µM'),
  ('CCOC(=O)CCC(NC(=O)c1ccc(Oc2nc3ccccc3nc2C(=O)OCC)cc1)C(=O)OCC (centres undefined)', 'TGI', '> 100 µM'),
  ('O=[N+]([O-])c1cc(/C=N/NS(=O)(=O)c2ccc(F)cc2)c(O)c([N+](=O)[O-])c1', 'TGI', '> 100 µM'),
  ('CC12OC3CC(O1)C1(C=O)C4CCC5(C)C(c6ccc(=O)oc6)CCC5(O)C4CCC1(C3)O2 (centres undefined)', 'TGI', '0.246 µM'),
  ('O=C1C=C(Nc2ccccc2C(=O)CC(=O)C(=O)Nc2ccc(Cl)c(Cl)c2)c2ccccc2C1=O', 'TGI', '> 100 µM');
